Assay: MB-102 pig plasma concentration after intramuscular dosing
Format: in vivo
Details: Yorkshire, plasma, intramuscular, 3.2 mg/kg; pig 09801, IM, 3.2 mpk, 60 min; read-out: MB-102 Pig Plasma Conc.
measurement-kind: concentration at 60 min (ng/mL)
Answer with a number only, understood to be in ng/mL.

q: Could you tell me which concentration at 60 min is on file for Nc1nc(C(=O)N[C@H](CO)C(=O)O)c(N)nc1C(=O)N[C@H](CO)C(=O)O [MB-102] ?
a: 5030

----------
Experiment: MB-102 pig plasma concentration after intramuscular dosing
Format: in vivo
Conditions: Yorkshire, plasma, intramuscular, 3.2 mg/kg; pig 09801, IM, 3.2 mpk, 255 min; read-out: MB-102 Pig Plasma Conc.
measurement-kind: concentration at 255 min (ng/mL)
Answer format: numeric, ng/mL implied, no suffix.

q: Please give the measured concentration at 255 min for this compound: Nc1nc(C(=O)N[C@H](CO)C(=O)O)c(N)nc1C(=O)N[C@H](CO)C(=O)O
a: 520

The measured values listed here are drawn from patent US20220143222A1.
